- MEASURED_ON: human P2Y12 (Homo sapiens)
- Sequence (Q9H244 whole entry): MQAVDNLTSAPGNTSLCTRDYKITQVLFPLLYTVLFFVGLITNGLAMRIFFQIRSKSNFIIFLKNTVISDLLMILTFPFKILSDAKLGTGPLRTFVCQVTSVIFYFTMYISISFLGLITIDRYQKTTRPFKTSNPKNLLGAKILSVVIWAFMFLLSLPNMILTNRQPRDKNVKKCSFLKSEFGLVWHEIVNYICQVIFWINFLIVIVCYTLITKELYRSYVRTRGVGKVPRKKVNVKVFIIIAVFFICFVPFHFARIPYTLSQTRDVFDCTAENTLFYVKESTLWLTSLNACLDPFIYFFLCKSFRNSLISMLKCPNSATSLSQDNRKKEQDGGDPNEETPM
QUANTITY: pKd
Give only the number. pKd is defined as minus log10 of concentration in molar units.

Entry CCCCC/C=C\C\C=C/C=C/C=C/[C@@H](SC[C@H](N)C(=O)O)[C@@H](O)CCCC(=O)O [LTE4] ; assay system human P2Y12 (Homo sapiens); pKd recorded at 8.00
